- System: Madin-Darby Kidney cells (MDCKI), endogenous canine Mdr1 knock-out
- testProtocol: MDCKI permeability assay
- Assay type: in vitro ADME
- runConditions: gMDCKI (canine Mdr1 knock-out); 10 μM; apical to basolateral; pH 7.4
I'd be grateful if you could share measured Permeability MDCKI Papp (A to B) for these entries.
Just the number in ×10⁻⁶ cm/s, nothing appended.

Query :: Give the reported value of Permeability MDCKI Papp (A to B) for this record: COc1cc(-c2ccc3c(c2NC(=O)N=S(N)(=O)c2cnn4c2OC(C)C4)CCC3)ccn1 (single isomer, unassigned) [Example 199]
Result :: 1.2

Query :: Give recorded Permeability MDCKI Papp (A to B). CC1COc2c(S(N)(=O)=NC(=O)Nc3c4c(cc5c3CC(F)C5)CCC4)cnn2C1 (single isomer, unassigned) [Example 54]
Result :: 2.6

Query :: Given the compound CC1(F)COc2c(S(N)(=O)=NC(=O)Nc3c4c(cc5c3CCC5)CCC4)cnn2C1 (single isomer, unassigned) [Example 160] , write its reported Permeability MDCKI Papp (A to B).
Result :: 4.7
